Here, each record is paired with measured self-cleavage data.
B1: HDV Ribozyme (parent)
chain: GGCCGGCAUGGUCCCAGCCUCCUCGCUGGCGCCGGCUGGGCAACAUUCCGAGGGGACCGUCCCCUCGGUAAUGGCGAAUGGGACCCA

- Variants of: B1
- measurementDescription: self-cleavage, relative activity (ratio to wild type); higher = more cleavage; co-transcriptional
Please state the value as a number alone, without comment.

The following variants have reported results that may help.
{"variantDescription": "C14U C24U", "self-cleavage": 0.658}
{"variantDescription": "G6C C84A", "self-cleavage": 0.332}
{"variantDescription": "U20A C64U", "self-cleavage": 0.138}

Let's switch to this variant now.
Q: // lookup self-cleavage for C4A G50U
A: 0.372

src = the RNAGym collection of RNA variant scans (doi:10.7554/elife.80360)
